relative viability values for the molecules below.
Test system: NCI-H1944
Assay: relative viability (nuclei count vs DMSO), 5 days (fraction); higher = more cells survive
Settings: first compound 1.265 µM
Endpoint: relative viability

Molecule	Quantitative Result
COc1cc(N2CCC(C(N)=O)CC2)ccc1Nc1nc(N)c(Cl)c(Nc2ccccc2S(=O)(=O)C(C)C)n1 [HG-5-88-01] + CS(=O)(=O)N1CCN(Cc2cc3nc(-c4cccc5[nH]ncc45)nc(N4CCOCC4)c3s2)CC1 [Pictilisib] (partner 1 µM)	0.334
Clc1ccc(Nc2nnc(Cc3ccncc3)c3ccccc23)cc1 [Vatalanib] + CC(=O)Nc1cccc(-n2c(=O)n(C3CC3)c(=O)c3c(Nc4ccc(I)cc4F)n(C)c(=O)c(C)c32)c1 [Trametinib] (partner 0.02 µM)	0.425
COc1cc(N2CCC(C(N)=O)CC2)ccc1Nc1nc(N)c(Cl)c(Nc2ccccc2S(=O)(=O)C(C)C)n1 [HG-5-88-01] + CC(=O)c1c(C)c2cnc(Nc3ccc(N4CCNCC4)cn3)nc2n(C2CCCC2)c1=O [Palbociclib] (partner 0.5 µM)	0.322
Clc1ccc(Nc2nnc(Cc3ccncc3)c3ccccc23)cc1 [Vatalanib] + Cc1nc(Nc2ncc(C(=O)Nc3c(C)cccc3Cl)s2)cc(N2CCN(CCO)CC2)n1 [Dasatinib] (partner 0.075 µM)	0.23

###

Tested on: H3255
Test: relative viability (nuclei count vs DMSO), 5 days (fraction); higher = more cells survive
Conditions: first compound 0.1265 µM

Compound	relative viability
COc1cc(N2CCC(C(N)=O)CC2)ccc1Nc1nc(N)c(Cl)c(Nc2ccccc2S(=O)(=O)C(C)C)n1 [HG-5-88-01] + O=C(c1cc(Cc2n[nH]c(=O)c3ccccc23)ccc1F)N1CCN(C(=O)C2CC2)CC1 [Olaparib] (partner 8 µM)	0.593
C[C@@H]1CN(CC(=O)Nc2ccc3c(c2)Cc2cccc(-c4cc(=O)cc(N5CCOCC5)o4)c2S3)C[C@H](C)O1 + Cc1cc(Nc2cc(N3CCN(C)CC3)nc(Sc3ccc(NC(=O)C4CC4)cc3)n2)n[nH]1 [Tozasertib] (partner 0.1 µM)	0.606
C[C@@H]1CN(CC(=O)Nc2ccc3c(c2)Cc2cccc(-c4cc(=O)cc(N5CCOCC5)o4)c2S3)C[C@H](C)O1 + NC(=O)Nc1cc(-c2cccc(F)c2)sc1C(=O)N[C@H]1CCCNC1 [AZD7762] (partner 0.2 µM)	0.765
Clc1ccc(Nc2nnc(Cc3ccncc3)c3ccccc23)cc1 [Vatalanib] + CCNC(=O)c1noc(-c2cc(C(C)C)c(O)cc2O)c1-c1ccc(CN2CCOCC2)cc1 [Luminespib] (partner 0.01 µM)	0.91

###

Tested on: ABC-1
Test: relative viability (nuclei count vs DMSO), 5 days (fraction); higher = more cells survive
Settings: first compound 0.03162 µM

Compound	relative viability
CC(C)Oc1cc(Nc2nc(N[C@@H](C)c3ccc(F)cn3)ncc2Cl)n[nH]1 [AZ23] + O=C(c1cc(Cc2n[nH]c(=O)c3ccccc23)ccc1F)N1CCN(C(=O)C2CC2)CC1 [Olaparib] (partner 8 µM)	0.781
CC(C)Oc1cc(Nc2nc(N[C@@H](C)c3ccc(F)cn3)ncc2Cl)n[nH]1 [AZ23] + C[C@@H](Oc1cc(-c2cnn(C3CCNCC3)c2)cnc1N)c1c(Cl)ccc(F)c1Cl [Crizotinib] (partner 1 µM)	1.27
CC(C)Oc1cc(Nc2nc(N[C@@H](C)c3ccc(F)cn3)ncc2Cl)n[nH]1 [AZ23] + COc1cccc2cc(-c3nc([C@H]4CC[C@H](C(=O)O)CC4)n4ncnc(N)c34)[nH]c12 [OSI-027] (partner 0.5 µM)	0.408
CC(C)Oc1cc(Nc2nc(N[C@@H](C)c3ccc(F)cn3)ncc2Cl)n[nH]1 [AZ23] + N=C(N)NC(=N)NCCc1ccccc1 [Phenformin] (partner 250 µM)	0.221
CC(C)Oc1cc(Nc2nc(N[C@@H](C)c3ccc(F)cn3)ncc2Cl)n[nH]1 [AZ23] + CC(C)C[C@H](NC(=O)[C@H](Cc1ccccc1)NC(=O)c1cnccn1)B(O)O [Bortezomib] (partner 0.002 µM)	0.269

###

Test system: LXF-289
Assay: relative viability (nuclei count vs DMSO), 5 days (fraction); higher = more cells survive
Conditions: first compound 8 µM
Each record here notes measured relative viability.

Molecule	relative viability
CCCCCCCCCCCC1=C(O)C(=O)C=C(O)C1=O [Embelin] + CC(=O)c1c(C)c2cnc(Nc3ccc(N4CCNCC4)cn3)nc2n(C2CCCC2)c1=O [Palbociclib] (partner 0.5 µM)	0.613
CCCCCCCCCCCC1=C(O)C(=O)C=C(O)C1=O [Embelin] + Cc1nc(NC(=O)N2CCC[C@H]2C(N)=O)sc1-c1ccnc(C(C)(C)C(F)(F)F)c1 [Alpelisib] (partner 2 µM)	1.13
CCCCCCCCCCCC1=C(O)C(=O)C=C(O)C1=O [Embelin] + O=C(c1cc(Cc2n[nH]c(=O)c3ccccc23)ccc1F)N1CCN(C(=O)C2CC2)CC1 [Olaparib] (partner 8 µM)	1.14
CCCCCCCCCCCC1=C(O)C(=O)C=C(O)C1=O [Embelin] + COc1cccc2cc(-c3nc([C@H]4CC[C@H](C(=O)O)CC4)n4ncnc(N)c34)[nH]c12 [OSI-027] (partner 0.5 µM)	0.873
CCCCCCCCCCCC1=C(O)C(=O)C=C(O)C1=O [Embelin] + CS(=O)(=O)CCNCc1ccc(-c2ccc3ncnc(Nc4ccc(OCc5cccc(F)c5)c(Cl)c4)c3c2)o1 [Lapatinib] (partner 2 µM)	0.936
CCCCCCCCCCCC1=C(O)C(=O)C=C(O)C1=O [Embelin] + CC(=O)Nc1cccc(-n2c(=O)n(C3CC3)c(=O)c3c(Nc4ccc(I)cc4F)n(C)c(=O)c(C)c32)c1 [Trametinib] (partner 0.02 µM)	0.676

###

Tested on: NCI-H838
Test: relative viability (nuclei count vs DMSO), 5 days (fraction); higher = more cells survive
Conditions: first compound 0.01 µM
Each entry below lists one item and its recorded relative viability value.
Endpoint: relative viability

Compound	Quantitative Result
CC(C)Oc1cc(Nc2nc(N[C@@H](C)c3ccc(F)cn3)ncc2Cl)n[nH]1 [AZ23] + CC(=O)c1c(C)c2cnc(Nc3ccc(N4CCNCC4)cn3)nc2n(C2CCCC2)c1=O [Palbociclib] (partner 0.5 µM)	0.227
CC(C)Oc1cc(Nc2nc(N[C@@H](C)c3ccc(F)cn3)ncc2Cl)n[nH]1 [AZ23] + CC(=O)Nc1cccc(-n2c(=O)n(C3CC3)c(=O)c3c(Nc4ccc(I)cc4F)n(C)c(=O)c(C)c32)c1 [Trametinib] (partner 0.02 µM)	0.615
CC(C)Oc1cc(Nc2nc(N[C@@H](C)c3ccc(F)cn3)ncc2Cl)n[nH]1 [AZ23] + COc1cccc2cc(-c3nc([C@H]4CC[C@H](C(=O)O)CC4)n4ncnc(N)c34)[nH]c12 [OSI-027] (partner 0.5 µM)	0.437
CC(C)Oc1cc(Nc2nc(N[C@@H](C)c3ccc(F)cn3)ncc2Cl)n[nH]1 [AZ23] + CC1(C)CCC(c2ccc(Cl)cc2)=C(CN2CCN(c3ccc(C(=O)NS(=O)(=O)c4ccc(N[C@H](CCN5CCOCC5)CSc5ccccc5)c(S(=O)(=O)C(F)(F)F)c4)cc3)CC2)C1 [Navitoclax] (partner 0.5 µM)	1.15
CC(C)Oc1cc(Nc2nc(N[C@@H](C)c3ccc(F)cn3)ncc2Cl)n[nH]1 [AZ23] + Cc1nc(NC(=O)N2CCC[C@H]2C(N)=O)sc1-c1ccnc(C(C)(C)C(F)(F)F)c1 [Alpelisib] (partner 2 µM)	0.968
CC(C)Oc1cc(Nc2nc(N[C@@H](C)c3ccc(F)cn3)ncc2Cl)n[nH]1 [AZ23] + CC(C)C[C@H](NC(=O)[C@H](Cc1ccccc1)NC(=O)c1cnccn1)B(O)O [Bortezomib] (partner 0.002 µM)	0.772

###

Test system: NCI-H2347
Experiment: relative viability (nuclei count vs DMSO), 5 days (fraction); higher = more cells survive
Details: first compound 0.1265 µM
Endpoint: relative viability

Compound	Quantitative Result
COc1cc(N2CCC(C(N)=O)CC2)ccc1Nc1nc(N)c(Cl)c(Nc2ccccc2S(=O)(=O)C(C)C)n1 [HG-5-88-01] + CC(=O)c1c(C)c2cnc(Nc3ccc(N4CCNCC4)cn3)nc2n(C2CCCC2)c1=O [Palbociclib] (partner 0.5 µM)	0.417
Clc1ccc(Nc2nnc(Cc3ccncc3)c3ccccc23)cc1 [Vatalanib] + Nc1nc2[nH]cc(CCc3ccc(C(=O)N[C@@H](CCC(=O)O)C(=O)O)cc3)c2c(=O)[nH]1 [Pemetrexed] (partner 0.2 µM)	0.419
Clc1ccc(Nc2nnc(Cc3ccncc3)c3ccccc23)cc1 [Vatalanib] + CC(=O)c1c(C)c2cnc(Nc3ccc(N4CCNCC4)cn3)nc2n(C2CCCC2)c1=O [Palbociclib] (partner 0.5 µM)	0.423
C[C@@H]1CN(CC(=O)Nc2ccc3c(c2)Cc2cccc(-c4cc(=O)cc(N5CCOCC5)o4)c2S3)C[C@H](C)O1 + CS(=O)(=O)CCNCc1ccc(-c2ccc3ncnc(Nc4ccc(OCc5cccc(F)c5)c(Cl)c4)c3c2)o1 [Lapatinib] (partner 2 µM)	1.04
Clc1ccc(Nc2nnc(Cc3ccncc3)c3ccccc23)cc1 [Vatalanib] + CS(=O)(=O)CCNCc1ccc(-c2ccc3ncnc(Nc4ccc(OCc5cccc(F)c5)c(Cl)c4)c3c2)o1 [Lapatinib] (partner 2 µM)	0.858
COc1cc(N2CCC(C(N)=O)CC2)ccc1Nc1nc(N)c(Cl)c(Nc2ccccc2S(=O)(=O)C(C)C)n1 [HG-5-88-01] + CC(=O)Nc1cccc(-n2c(=O)n(C3CC3)c(=O)c3c(Nc4ccc(I)cc4F)n(C)c(=O)c(C)c32)c1 [Trametinib] (partner 0.02 µM)	0.284
Clc1ccc(Nc2nnc(Cc3ccncc3)c3ccccc23)cc1 [Vatalanib] + Cc1cc(Nc2cc(N3CCN(C)CC3)nc(Sc3ccc(NC(=O)C4CC4)cc3)n2)n[nH]1 [Tozasertib] (partner 0.1 µM)	0.579
COc1cc(N2CCC(C(N)=O)CC2)ccc1Nc1nc(N)c(Cl)c(Nc2ccccc2S(=O)(=O)C(C)C)n1 [HG-5-88-01] + C[C@]1(O)C[C@@H](c2nc(-c3ccc4ccc(-c5ccccc5)nc4c3)c3c(N)nccn32)C1 [Linsitinib] (partner 1 µM)	0.933
